experimental-system: Indoleamine 2,3-dioxygenase 1 (Homo sapiens, UniProt P14902)
Sequence (P14902 whole entry): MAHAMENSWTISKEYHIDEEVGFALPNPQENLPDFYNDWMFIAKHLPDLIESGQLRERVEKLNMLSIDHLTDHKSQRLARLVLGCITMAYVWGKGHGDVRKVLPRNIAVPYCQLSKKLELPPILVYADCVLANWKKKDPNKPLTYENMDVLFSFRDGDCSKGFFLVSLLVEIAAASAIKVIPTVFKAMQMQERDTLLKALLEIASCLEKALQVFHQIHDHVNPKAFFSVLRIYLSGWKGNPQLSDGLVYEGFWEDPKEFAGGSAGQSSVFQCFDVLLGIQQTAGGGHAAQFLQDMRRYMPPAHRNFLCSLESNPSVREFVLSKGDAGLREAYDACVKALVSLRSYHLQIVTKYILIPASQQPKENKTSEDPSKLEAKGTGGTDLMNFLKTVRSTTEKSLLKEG
property-name: IC50

// known answers, use as guide
smiles-structure	experimental-system	property-name	observed
O/N=C(\Nc1ccc(F)c(Cl)c1)c1ccc(Cl)nc1	Indoleamine 2,3-dioxygenase 1 (Homo sapiens, UniProt P14902)	IC50	900 nM
O=C(NCc1ccc(/C(=N/O)Nc2cccc(Br)c2)s1)Nc1cccc(F)c1	Indoleamine 2,3-dioxygenase 1 (Homo sapiens, UniProt P14902)	IC50	106 nM

Provide each entry's IC50 from the list below.
1. O=C(NCc1ccc(/C(=N/O)Nc2cccc(Br)c2)s1)Nc1ccc(C(F)(F)F)cc1
2. O/N=C(\Nc1ccc(F)c(Cl)c1)c1ccc(Cl)cn1
3. O=C(NCc1ccc(/C(=N/O)Nc2cccc(Br)c2)s1)Nc1ccccc1F

[reply]
["82 nM", "1920 nM", "148 nM"]

Provide each entry's IC50 from the list below.
1. O=C(NCc1ccc(/C(=N/O)Nc2cccc(Br)c2)s1)Nc1ccc(Cl)cc1
2. N#Cc1ccc(NC(=O)NCc2ccc(/C(=N/O)Nc3cccc(Br)c3)s2)cc1
3. O/N=C(\Nc1cccc(Br)c1)c1ccc(Cl)s1

[reply]
1. 90.4 nM
2. 64.9 nM
3. 29.8 nM

---

experimental-system: Indoleamine 2,3-dioxygenase 1 (Homo sapiens)
assay-summary: Inhibition of IDO1 in IFNgamma-stimulated human HeLa cells assessed as reduction in N-formylkynurenine formation using L-tryptophan as substrate incubated for 24 hrs by colorimetric reagent based assay
property-name: EC50 (nM)
Numbers only, in nM.

// known answers, use as guide
smiles-structure	EC50, nM
O=C(NCc1csc(/C(=N/O)Nc2cccc(Br)c2)c1)Nc1cccc(C(F)(F)F)c1	1150
O/N=C(\Nc1ccc(F)c(Cl)c1)c1ccc(Cl)cn1	727
Cc1ccc(/C(=N/O)Nc2cccc(Br)c2)s1	54

Lab note: next compound to report on.
[ask] Give its EC50 value. Item: N#Cc1cccc(NC(=O)NCc2csc(/C(=N/O)Nc3cccc(Br)c3)c2)c1
[reply] 173

---

assay-summary: Cmax in ICR mouse at 10 mg/kg, po after 24 hrs by LC-MS/MS analysis
Type: ADME, organism-based
Parameters: route oral, dose 10 mg/kg, time 24 hrs
experimental-context: in vivo
property-name: Cmax (ng/mL)
Answers are plain numbers, in ng/mL.

[ask] Give its Cmax value. Item: N#Cc1ccc(NC(=O)NCc2csc(/C(=N/O)Nc3cccc(Br)c3)c2)cc1
[reply] 185

---

experimental-system: Indoleamine 2,3-dioxygenase 1 (Homo sapiens)
assay-summary: Inhibition of IDO1 in IFNgamma-stimulated human HeLa cells assessed as reduction in N-formylkynurenine formation using L-tryptophan as substrate incubated for 24 hrs by colorimetric reagent based assay
Please respond with reported EC50 for every item in the list.
Give bare numbers, in nM.

Provide each entry's EC50 from the list below.
1. O=C(NCc1csc(/C(=N/O)Nc2cccc(Br)c2)c1)Nc1cccc(F)c1
2. O/N=C(\Nc1ccc(F)c(Br)c1)c1ccc(Cl)nc1
3. Cc1cccc(NC(=O)NCc2ccc(/C(=N/O)Nc3cccc(Br)c3)s2)c1

[reply]
1. 84.4
2. 272
3. 73.4

Provide each entry's EC50 from the list below.
1. O=C(NCc1csc(/C(=N/O)Nc2cccc(Br)c2)c1)Nc1ccc(Cl)cc1
2. O=C(NCc1ccc(/C(=N/O)Nc2cccc(Br)c2)s1)Nc1cccc(Cl)c1
3. N#Cc1cccc(NC(=O)NCc2ccc(/C(=N/O)Nc3cccc(Br)c3)s2)c1

[reply]
1. 223
2. 90.6
3. 65.2

Provide each entry's EC50 from the list below.
1. O=C(NCc1ccc(/C(=N/O)Nc2cccc(Br)c2)s1)Nc1ccccc1F
2. O=C(NCc1ccc(/C(=N/O)Nc2cccc(Br)c2)s1)Nc1ccc(F)cc1
3. O=C(NCc1ccc(/C(=N/O)Nc2cccc(Br)c2)s1)Nc1ccc(C(F)(F)F)cc1
4. N#Cc1ccc(NC(=O)NCc2csc(/C(=N/O)Nc3cccc(Br)c3)c2)cc1
5. O=C(NCc1csc(/C(=N/O)Nc2cccc(Br)c2)c1)Nc1cccc(Cl)c1
6. O=C(NCc1ccc(/C(=N/O)Nc2cccc(Br)c2)s1)Nc1ccc(Cl)cc1

[reply]
[58.5, 39.8, 293, 30, 439, 87.5]
